Biological target: T1, IL-11 (Cat. 12225-HNCE, Sino Biological Inc.) (UniProt P20809 22-199, limits assumed)
T1 sequence (looked up): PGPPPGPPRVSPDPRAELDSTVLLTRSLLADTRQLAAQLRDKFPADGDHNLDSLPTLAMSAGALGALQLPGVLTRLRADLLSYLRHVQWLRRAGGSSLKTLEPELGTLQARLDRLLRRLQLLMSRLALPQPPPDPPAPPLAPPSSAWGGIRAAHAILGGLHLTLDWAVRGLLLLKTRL
Assay: cell-based or functional assay
So I've got a bunch of binders here, and I need their Blocking activity (IC50), STAT3-luc reporter values.
Give the quantity in µg/mL, number only.

The recorded Blocking activity (IC50), STAT3-luc reporter for hz8C8 (antibody, human IgG1, kappa, V domains shown, humanized, human constant regions; also called hz8C8-VH + hz8C8-VL; parent antibody hz8C8) VH: EVQLVESGGGLVQPGGSLRLSCAASGFTFSSFGMHWVRQAPGKGLEWVAYITSGSNTIYYADTVKGRFTISRDNAKNSLYLQMNSLRAEDTAVYYCAREYYSYDEGFAYWGQGTLVTVSS VL: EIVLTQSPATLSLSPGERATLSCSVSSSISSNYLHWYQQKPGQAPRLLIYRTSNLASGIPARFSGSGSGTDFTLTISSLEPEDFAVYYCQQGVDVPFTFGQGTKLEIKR is 2.04

The recorded Blocking activity (IC50), STAT3-luc reporter for hz8C8-VHm3 + hz8C8-VL (antibody, human IgG1, kappa, V domains shown, human IgG1 constant regions) VH: EVQLVESGGGLVQPGGSLRLSCAASGFTFSSFGMHWVRQAPGKGLEWVAYITPGSNTTYYADTVKGRFTISRDNAKNSLYLQMNSLRAEDTAVYYCAREYYSYDEGFAYWGQGTLVTVSS VL: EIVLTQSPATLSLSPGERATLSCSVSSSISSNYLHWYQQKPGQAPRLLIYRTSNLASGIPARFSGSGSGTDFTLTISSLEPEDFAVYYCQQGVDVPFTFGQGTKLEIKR is 0.946

The recorded Blocking activity (IC50), STAT3-luc reporter for hz8C8-VHm1 + hz8C8-VLm7-m1 (antibody, human IgG1, kappa, V domains shown, human IgG1 constant regions) VH: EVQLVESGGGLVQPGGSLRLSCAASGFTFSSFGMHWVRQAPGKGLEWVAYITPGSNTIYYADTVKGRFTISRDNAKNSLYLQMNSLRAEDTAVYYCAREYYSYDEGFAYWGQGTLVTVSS VL: EIVLTQSPATLSLSPGERATLSCSVSDLIPSQYLHWYQQKPGQAPRLLIYRASNLASGIPARFSGSGSGTDFTLTISSLEPEDFAVYYCQQGVDVPFTFGQGTKLEIKR is 0.068

The recorded Blocking activity (IC50), STAT3-luc reporter for hz18A10-VH + hz18A10-VLm3 (antibody, V domains shown, Constant regions not restated for this antibody) VH: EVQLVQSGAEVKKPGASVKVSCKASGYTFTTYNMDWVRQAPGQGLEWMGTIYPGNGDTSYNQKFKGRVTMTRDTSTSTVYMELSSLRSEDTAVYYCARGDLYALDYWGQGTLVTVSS VL: DIQMTQSPSSLSASVGDRVTITCKASHSVSNDVAWYQQKPGKAPKLLIYSASNRYTGVPSRFSGSGSGTDFTFTISSLQPEDIATYYCQHDYSSPYTFGQGTKLEIK is 15.2

The recorded Blocking activity (IC50), STAT3-luc reporter for hz8C8-VHm1 + hz8C8-VLm8 (antibody, human IgG1, kappa, V domains shown, human IgG1 constant regions) VH: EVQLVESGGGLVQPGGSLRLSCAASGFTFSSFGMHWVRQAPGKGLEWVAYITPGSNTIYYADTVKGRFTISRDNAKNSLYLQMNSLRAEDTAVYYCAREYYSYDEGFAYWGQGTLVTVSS VL: EIVLTQSPATLSLSPGERATLSCSVSDLIPSQYLSWYQQKPGQAPRLLIYRTSNLASGIPARFSGSGSGTDFTLTISSLEPEDFAVYYCQQGVDVPFTFGQGTKLEIKR is 0.01
